Assignment: determine reported pIC50 for the given compounds.
# study target: NS3-NS4A protease (Hepatitis C virus genotype 1a)
# Construct: Recombinant E. coli or Baculovirus full-length NS3 was diluted to 3.33 μM with assay buffer; made in house; host or cells: E. coli or baculovirus (BV) system
# Sequence (P27958 1027-1657): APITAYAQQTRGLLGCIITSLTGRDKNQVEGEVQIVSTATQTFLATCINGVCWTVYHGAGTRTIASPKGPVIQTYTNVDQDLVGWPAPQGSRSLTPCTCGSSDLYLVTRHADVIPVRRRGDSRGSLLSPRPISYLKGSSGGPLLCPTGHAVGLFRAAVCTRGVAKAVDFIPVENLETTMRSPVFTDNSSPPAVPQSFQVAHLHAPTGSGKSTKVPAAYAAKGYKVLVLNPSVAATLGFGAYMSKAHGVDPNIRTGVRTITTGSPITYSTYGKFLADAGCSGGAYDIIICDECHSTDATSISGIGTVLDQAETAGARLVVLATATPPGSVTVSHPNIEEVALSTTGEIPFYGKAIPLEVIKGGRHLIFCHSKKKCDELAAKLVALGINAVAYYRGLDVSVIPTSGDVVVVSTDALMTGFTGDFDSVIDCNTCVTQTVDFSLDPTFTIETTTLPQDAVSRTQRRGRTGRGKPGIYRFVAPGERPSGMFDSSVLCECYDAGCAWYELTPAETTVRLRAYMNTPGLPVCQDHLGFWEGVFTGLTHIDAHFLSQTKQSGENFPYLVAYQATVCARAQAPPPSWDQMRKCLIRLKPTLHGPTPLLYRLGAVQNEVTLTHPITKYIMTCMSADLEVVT
# test description: NS3-NS4A protease assay (NS3 inhibition assay, RETS1 substrate), Section B
# Type: biochemical
# condition set: read-out: NS3-NS4A IC50
pIC50: −log10 of the molar value.

| compound | study target | pIC50 |
| --- | --- | --- |
| COc1cc2c(cc1OC)CN(C(=O)O[C@@H]1C[C@H]3C(=O)N[C@]4(C(=O)O)C[C@H]4/C=C\CCCCC[C@H](NC(=O)OC(C)(C)C)C(=O)N3C1)CC2 | NS3-NS4A protease (Hepatitis C virus genotype 1a) | > 5.00 |

Field: pIC50. Fill in for each record below.
1. CC(C)(C)OC(=O)N[C@H]1CCCCC/C=C\[C@@H]2C[C@@]2(C(=O)O)NC(=O)[C@@H]2C[C@@H](OC(=O)N3Cc4ccccc4C3)CN2C1=O
2. CC(C)(C)OC(=O)N[C@H]1CCCCC/C=C\[C@@H]2C[C@@]2(C(=O)NS(=O)(=O)C2CC2)NC(=O)[C@@H]2C[C@@H](OC(=O)N3CCc4nc(Nc5ccccc5)sc4C3)CN2C1=O

Output line:
1: > 7.00; 2: > 7.00

Quick one: give me pIC50 for each item below, same order please.
1. O=C(NC1CCCC1)N[C@H]1CCCCC/C=C\[C@@H]2C[C@@]2(C(=O)NS(=O)(=O)C2CC2)NC(=O)[C@@H]2C[C@@H](OC(=O)N3CCc4cccc(C(F)(F)F)c4C3)CN2C1=O
2. CC(C)(C)OC(=O)N[C@H]1CCCCC/C=C\[C@@H]2C[C@@]2(C(=O)O)NC(=O)[C@@H]2C[C@@H](OC(=O)N3CCc4ccccc4C3CN3CCCCC3)CN2C1=O (stereo partly shown)
3. CC(C)(C)OC(=O)N[C@H]1CCCCC/C=C\[C@@H]2C[C@@]2(C(=O)O)NC(=O)[C@@H]2C[C@@H](OC(=O)N3CCc4nc(N)sc4C3)CN2C1=O

Output line:
1. > 7.00
2. > 5.00
3. > 5.00
